target: Alexa 488 and 532 dual-labeled KF (K550C/L744C/C907G Klenow Fragment) (Escherichia coli, UniProt P00582, C907G/K550C/L744C); type: biochemical; set-up: made in house; host or cells: E. coli BL21(DE3); details: AF488 donor fluorescence, stopped flow, FIG. 5-7
Sequence (P00582 324-928 K550C/L744C/C907G): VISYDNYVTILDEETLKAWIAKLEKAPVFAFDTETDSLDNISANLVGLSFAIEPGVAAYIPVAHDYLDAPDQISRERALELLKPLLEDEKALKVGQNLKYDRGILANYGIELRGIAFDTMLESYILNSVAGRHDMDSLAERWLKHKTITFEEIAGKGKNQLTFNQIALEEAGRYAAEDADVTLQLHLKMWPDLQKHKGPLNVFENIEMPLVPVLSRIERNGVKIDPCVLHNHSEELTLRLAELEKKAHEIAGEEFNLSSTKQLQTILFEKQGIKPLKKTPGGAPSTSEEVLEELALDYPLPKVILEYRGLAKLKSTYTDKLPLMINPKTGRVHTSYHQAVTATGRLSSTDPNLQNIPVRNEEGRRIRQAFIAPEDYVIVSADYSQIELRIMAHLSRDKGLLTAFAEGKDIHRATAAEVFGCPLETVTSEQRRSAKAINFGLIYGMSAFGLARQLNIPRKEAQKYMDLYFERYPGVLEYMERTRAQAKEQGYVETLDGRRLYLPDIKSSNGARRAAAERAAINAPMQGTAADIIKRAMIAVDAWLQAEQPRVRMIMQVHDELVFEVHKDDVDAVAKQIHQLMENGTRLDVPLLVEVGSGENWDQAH
measurement-kind: time durations of the FRET signal for incorporation into the primer

>  <molecule>
Nc1ncnc2c1ncn2[C@H]1C[C@H](O)[C@@H](COP(=O)(O)OP(=O)(O)OP(=O)(O)O)O1 [dATP]

>  <result>
very similar

$$$$
>  <molecule>
Nc1nc2c(ncn2[C@H]2C[C@H](O)[C@@H](COP(=O)(O)OP(=O)(O)OP(=O)(O)O)O2)c(=O)[nH]1 [dGTP]

>  <result>
very similar

$$$$
